# System: SK-MEL-2
# method description: NCI tumour cell line growth inhibition, 48 h
The source made the active and inactive calls. No stated cut-off is given here; in the data, active = GI50 up to about 1.1 µM and inactive = higher.
Just give me one of these, please: active, inactive

CC(=O)OCC1OC(OC2C(COC(C)=O)OC(Sc3ccccc3C)C(OC(C)=O)C2OC(C)=O)C(OC(C)=O)C(OC(C)=O)C1OC(C)=O (stereo not given)
inactive
COc1cc(C2c3cc4c(cc3OC3(OC)COC(=O)C23)OCO4)cc(OC)c1OC (stereo not given)
active
[O-][n+]1c2ccccc2[n+]([O-])c2ccccc21
inactive
NCCSS(=O)(=O)CCN
inactive

Q: Could you kindly confirm the outcome this assay logged for O=C(Cc1ccc(Cl)c(Cl)c1)NCC1(N2CCCCC2)CCCCC1 ?
Ans: inactive

====

# Tested on: LOX IMVI
# method description: NCI tumour cell line growth inhibition, 48 h
Active and inactive are the calls of the source. Cut-off read from the data, not from the text of the source: active = GI50 up to about 1.1 µM and inactive = higher.
Below: a set of entries, each annotated with reported GI50.

// worked examples, GI50 included
COc1ccc(/C=C/C(=O)c2cc(C(=O)O)c(OC)cc2OC)cc1OC
> 100 µM (inactive)
COc1cccc(NC(=O)CC(=O)N2N=C(C)C(/N=N\c3ccc(S(=O)(=O)c4ccc(/N=N/C5C(=O)N(C(=O)CC(=O)Nc6cccc(OC)c6)N=C5C)cc4)cc3)C2=O)c1 (configuration not stated)
> 100 µM (inactive)
c1cncc(C2c3[nH]c4ccccc4c3CCN2CCCN2CCCCC2)c1 (configuration not stated)
> 100 µM (inactive)
CCOC(=O)C1(C(=O)OCC)Nc2cccnc2N(C)N1
25.4 µM (inactive)
c1ccc(CCCNc2nnnc3ccccc23)cc1
99.5 µM (inactive)

Q: Param item = CCOC(=O)c1c(C)n(C)c2c1cc(O)c1[nH]c3c(c12)CCCC3 ; retrieve measured GI50.
Ans: 14.5 µM (inactive)

Q: COC(=O)c1cc(/C=C\c2cc(OC)ccc2OC)ccc1OC ?
Ans: 24 µM (inactive)

====

Below: a set of entries, each annotated with reported GI50.
# Tested on: HCT-116
# method description: NCI tumour cell line growth inhibition, 48 h
The source made the active and inactive calls. No stated cut-off is given here; in the data, active = GI50 up to about 1.1 µM and inactive = higher.

Q: Param item = CO/N=C(/C(=O)N(C(=O)/C(=N/OC)c1csc(NC(c2ccccc2)(c2ccccc2)c2ccccc2)n1)n1cnn(CC(=O)OC(C)(C)C)c1=O)c1csc(NC(c2ccccc2)(c2ccccc2)c2ccccc2)n1 ; retrieve measured GI50.
Ans: > 10 µM (inactive)

Q: O=[N+]([O-])c1cccnc1-n1cnc2ccccc21 ?
Ans: > 100 µM (inactive)

Q: CCOC(=O)C1C(=O)CC(O)(OCC)C(C(=O)OCC)C1c1ccc(OC)cc1 (centres undefined) ?
Ans: > 100 µM (inactive)

Q: O=C1c2ccccc2C(=O)c2[nH]c(Cc3ccc(F)cc3)nc21 ?
Ans: 19.5 µM (inactive)

====

# Test system: T47D
# method description: NCI tumour cell line growth inhibition, 48 h
Calls of active or inactive are those of the source. Rule as the data show it: active = GI50 up to about 1.1 µM and inactive = higher.
Below: a set of entries, each annotated with reported GI50.

// worked examples, GI50 included
O=C(c1ccccc1)C1C(c2ccccc2[N+](=O)[O-])N1C1CCCCC1 (stereo not drawn)
2.51 µM (inactive)
COc1ccc(-n2cnc3c(NC(Cc4ccccc4)C(=O)O)ncnc32)cc1 (stereo not drawn)
92.7 µM (inactive)

Next compound, please.
Q: Param item = CCOC(=O)C1C(c2ccc3c(c2)OCO3)c2c(n[nH]c2O)CC1(O)OCC (stereo not drawn) ; retrieve measured GI50.
Ans: > 100 µM (inactive)

Every entry's value here was drawn from ChEMBL document CHEMBL1201862.
